Reference source for all entries: paper PMC8699473

assay: Short-term stability in spiked pooled human plasma (bench-top, 4 °C, 56 °C); settings: validation standard 2xLLOV
Reported Short-time stability (24h, RT, without daylight) Accuracy [%] is given for each of the following compounds.
MEASURED_QUANTITY: Short-time stability (24h, RT, without daylight) Accuracy [%] (%)

| COMPOUND | OBSERVED_MEASUREMENT |
| --- | --- |
| Cc1c(C(=O)Nc2ccc(N3C[C@@H](C)O[C@@H](C)C3)nc2)cccc1-c1ccc(OC(F)(F)F)cc1 [Sonidegib] | 91.1 |
| Cc1cc(Nc2ncc(Cl)c(Nc3ccccc3S(=O)(=O)C(C)C)n2)c(OC(C)C)cc1C1CCNCC1 [Ceritinib] | 72.2 |
| CS(=O)(=O)CCNCc1ccc(-c2ccc3ncnc(Nc4ccc(OCc5cccc(F)c5)c(Cl)c4)c3c2)o1 [Lapatinib] | 53.0 |
| COc1cc(N2CCC(N3CCN(C)CC3)CC2)ccc1Nc1ncc(Cl)c(Nc2ccccc2P(C)(C)=O)n1 [Brigatinib] | 74.1 |
| COc1cc2nccc(Oc3ccc(NC(=O)Nc4cc(C)on4)c(Cl)c3)c2cc1OC [Tivozanib] | 103.9 |
| CNC(=O)c1cc(Oc2ccc(NC(=O)Nc3ccc(Cl)c(C(F)(F)F)c3)cc2)ccn1 [Sorafenib] | 81.9 |
| COc1cc2nccc(Oc3ccc(NC(=O)NC4CC4)c(Cl)c3)c2cc1C(N)=O [Lenvatinib] | 94.6 |
| O=c1[nH]c(=O)n([C@H]2C[C@H](O)[C@@H](CO)O2)cc1C(F)(F)F [Trifluridine] | 76.2 |
| CNC(=O)c1cc(Oc2ccc(NC(=O)Nc3ccc(Cl)c(C(F)(F)F)c3)c(F)c2)ccn1 [Regorafenib] | 83.8 |
| CO[C@@H]1[C@H](N(C)C(=O)c2ccccc2)C[C@H]2O[C@]1(C)n1c3ccccc3c3c4c(c5c6ccccc6n2c5c31)C(=O)NC4 [Midostaurin] | 88.1 |
| CNC(=O)c1ccc(N2C(=S)N(c3cnc(C#N)c(C(F)(F)F)c3)C(=O)C23CCC3)cc1F [Apalutamide] | 80.8 |
| CC1(C)CCC(CN2CCN(c3ccc(C(=O)NS(=O)(=O)c4ccc(NCC5CCOCC5)c([N+](=O)[O-])c4)c(Oc4cnc5[nH]ccc5c4)c3)CC2)=C(c2ccc(Cl)cc2)C1 [Venetoclax] | 95.7 |
| O=C(c1cc(Cc2n[nH]c(=O)c3ccccc23)ccc1F)N1CCN(C(=O)C2CC2)CC1 [Olaparib] | 90.8 |
| CNC(=O)c1ccccc1Sc1ccc2c(/C=C/c3ccccn3)n[nH]c2c1 [Axitinib] | 86.7 |
| C=CC(=O)Nc1cc(Nc2nccc(-c3cn(C)c4ccccc34)n2)c(OC)cc1N(C)CCN(C)C [Osimertinib] | 61.7 |
| C#Cc1cccc(Nc2ncnc3cc(OCCOC)c(OCCOC)cc23)c1 [Erlotinib] | 95.3 |

====

test: Short-term stability in spiked pooled human plasma (bench-top, 4 °C, 56 °C); details: validation standard LLOV
MEASURED_QUANTITY: Short-time stability (24h, RT, without daylight) Accuracy [%]

| MOLECULE | OBSERVED_MEASUREMENT |
| --- | --- |
| CNC(=O)c1ccccc1Sc1ccc2c(/C=C/c3ccccn3)n[nH]c2c1 | 106.1% |
| CS(=O)(=O)CCNCc1ccc(-c2ccc3ncnc(Nc4ccc(OCc5cccc(F)c5)c(Cl)c4)c3c2)o1 | 14.4% |
| O=c1[nH]c(=O)n([C@H]2C[C@H](O)[C@@H](CO)O2)cc1C(F)(F)F | 36.1% |
| C#Cc1cccc(Nc2ncnc3cc(OCCOC)c(OCCOC)cc23)c1 | 107.4% |
| C[C@@H](Oc1cc(-c2cnn(C3CCNCC3)c2)cnc1N)c1c(Cl)ccc(F)c1Cl | 71.2% |
| Cc1ccc(NC(=O)c2ccc(CN3CCN(C)CC3)cc2)cc1Nc1nccc(-c2cccnc2)n1 | 83.8% |
| Cc1[nH]c2ccccc2c1CCNCc1ccc(/C=C/C(=O)NO)cc1 | 52.8% |
| CNC(=O)c1ccc(N2C(=S)N(c3ccc(C#N)c(C(F)(F)F)c3)C(=O)C2(C)C)cc1F [Enzalutamide] | 103.0% |
| COC(=O)c1ccc2c(c1)NC(=O)/C2=C(\Nc1ccc(N(C)C(=O)CN2CCN(C)CC2)cc1)c1ccccc1 | 96.1% |
| CC1(C)CCC(CN2CCN(c3ccc(C(=O)NS(=O)(=O)c4ccc(NCC5CCOCC5)c([N+](=O)[O-])c4)c(Oc4cnc5[nH]ccc5c4)c3)CC2)=C(c2ccc(Cl)cc2)C1 | 102.7% |
| CNC(=O)c1ccc(N2C(=S)N(c3cnc(C#N)c(C(F)(F)F)c3)C(=O)C23CCC3)cc1F [Apalutamide] | 75.7% |
| CC(C)(C)c1nc(-c2cccc(NS(=O)(=O)c3c(F)cccc3F)c2F)c(-c2ccnc(N)n2)s1 | 108.2% |
| CN(C)C(=O)c1cc2cnc(Nc3ccc(N4CCNCC4)cn3)nc2n1C1CCCC1 | 81.3% |
| CCN(CC)CCNC(=O)c1c(C)[nH]c(/C=C2\C(=O)Nc3ccc(F)cc32)c1C | 98.2% |
| COc1cc2ncnc(Nc3ccc(F)c(Cl)c3)c2cc1NC(=O)/C=C/CN1CCCCC1 | 72.7% |
| CN(C)C/C=C/C(=O)Nc1cc2c(Nc3ccc(F)c(Cl)c3)ncnc2cc1O[C@H]1CCOC1 | 69.9% |
